Experiment: gradient 5% acetonitrile 3 min, to 50% in 2 min, to 85% in 15 min, held 3 min, 100 µL/min
Conditions: column: Zorbax Extend-C18 2.1 x 50 mm; eluents: water / acetonitrile, 0.1% formic acid
Assign RP-LC retention time to each entry below.
Answer with the number, then the unit.

## Task Fill blank: measured RP-LC retention time of the compound O=C(c1ccc(F)c(F)c1)N1CCCC(c2ccnc(-c3cccc(F)c3)n2)C1 (stereo not given) is ____.
## Result 1120 s

## Task Fill blank: measured RP-LC retention time of the compound CCn1cnc2c(-c3ccccc3)cn(CC(=O)NCc3ccco3)c2c1=O is ____.
## Result 796 s

## Task Fill blank: measured RP-LC retention time of the compound Cn1nc(-c2nc(C3CC3)no2)c2c1CCN(C(=O)c1ccccc1F)C2 is ____.
## Result 805 s

## Task Fill blank: measured RP-LC retention time of the compound CCCN1CCN(C(=O)CC2Sc3ncccc3N(C)C2=O)CC1 (stereo not given) is ____.
## Result 576 s

## Task Fill blank: measured RP-LC retention time of the compound CCN(Cc1ccc(Cl)cc1)Cc1cc(=O)n2cc(C)ccc2n1 is ____.
## Result 583 s

## Task Fill blank: measured RP-LC retention time of the compound Cc1nc(-c2ccc3c(c2)CCN3C(=O)Cc2c[nH]c3ccccc23)cs1 is ____.
## Result 950 s

## Task Fill blank: measured RP-LC retention time of the compound COc1ccc(-c2nc3c(C)cccn3c2Nc2ccccc2C)cc1 is ____.
## Result 755 s

## Task Fill blank: measured RP-LC retention time of the compound COc1ccc(-c2ccc(N3CCN(c4ccccc4)CC3)nn2)cc1S(=O)(=O)N1CCOCC1 is ____.
## Result 766 s

## Task Fill blank: measured RP-LC retention time of the compound NS(=O)(=O)c1ccc(NC(=O)c2csc3c2CCCC3)cc1 is ____.
## Result 769 s

## Task Fill blank: measured RP-LC retention time of the compound CCNC(=O)c1nc(-c2ccncc2)cs1 is ____.
## Result 574 s

* * *

Assay: gradient 5% acetonitrile 3 min, to 50% in 2 min, to 85% in 15 min, held 3 min, 100 µL/min
Conditions: column: Zorbax Extend-C18 2.1 x 50 mm; eluents: water / acetonitrile, 0.1% formic acid
Assign RP-LC retention time to each entry below.
Answer in s, number only, no unit symbol.

## Task Fill blank: measured RP-LC retention time of the compound CCn1ccc(NC(=O)c2ccccc2)n1 is ____.
## Result 694

## Task Fill blank: measured RP-LC retention time of the compound O=C(Oc1coc(CSc2ncccn2)cc1=O)c1ccco1 is ____.
## Result 667

## Task Fill blank: measured RP-LC retention time of the compound O=C(COc1ccc(F)cc1)Nc1cnc(N2CCCCC2)nc1 is ____.
## Result 931

## Task Fill blank: measured RP-LC retention time of the compound COc1cc(NC(=O)N2CCN(c3ccc(=O)n(-c4ccc(F)cc4)n3)CC2)cc(OC)c1OC is ____.
## Result 723

## Task Fill blank: measured RP-LC retention time of the compound Cc1ccc(-c2nocc2CCC(=O)NCc2ccccc2)cc1 is ____.
## Result 910

## Task Fill blank: measured RP-LC retention time of the compound CCCN(C(=O)c1c(C)oc2nc(C)nc(N3CCOCC3)c12)c1ccc(OCC)cc1 is ____.
## Result 902

## Task Fill blank: measured RP-LC retention time of the compound CCCN(C(=O)c1ccco1)c1nc(-c2ccc(C)cc2)cs1 is ____.
## Result 1390

## Task Fill blank: measured RP-LC retention time of the compound O=C(OCc1cc(-c2cc3ccccc3o2)on1)c1ccccc1S(=O)(=O)C(F)F is ____.
## Result 1090

## Task Fill blank: measured RP-LC retention time of the compound O=C(C1CCCN(c2ccc(-c3ccccc3)nn2)C1)N1CCN(c2ccccc2)CC1 (stereo not given) is ____.
## Result 783

## Task Fill blank: measured RP-LC retention time of the compound CC(=O)N1CCCC1c1nc2ccccc2n1CC(=O)N1CCCC1 (stereo not given) is ____.
## Result 574

* * *

Assay: gradient 5% acetonitrile 3 min, to 50% in 2 min, to 85% in 15 min, held 3 min, 100 µL/min
Conditions: column: Zorbax Extend-C18 2.1 x 50 mm; eluents: water / acetonitrile, 0.1% formic acid
Assign RP-LC retention time to each entry below.
Answer in s, number only, no unit symbol.

## Task Fill blank: measured RP-LC retention time of the compound CN(C)c1nn(CC(=O)Nc2ccc(F)cc2Cl)c(=O)c2ccccc12 is ____.
## Result 913

## Task Fill blank: measured RP-LC retention time of the compound Cc1ccc(-c2nc(-c3ccc4c(c3)ncn4CCN3CCCC3)no2)s1 is ____.
## Result 639

## Task Fill blank: measured RP-LC retention time of the compound CC(C)NC(=O)C1CCN(C(=O)c2ncn3c2COC(c2ccc(Cl)cc2)C3)CC1 (stereo not given) is ____.
## Result 679

## Task Fill blank: measured RP-LC retention time of the compound O=C(NC1CC(=O)N(C2CC2)C1)c1cc2ccccc2[nH]1 (stereo not given) is ____.
## Result 638

## Task Fill blank: measured RP-LC retention time of the compound CN1CCC(NC(=O)C2CCN(c3nc4ccc(-c5ccsc5)nc4s3)CC2)CC1 is ____.
## Result 640

## Task Fill blank: measured RP-LC retention time of the compound CCOC(=O)C1=C(CN2CCC(N3CCCCC3)CC2)NC(=O)NC1c1ccc(Cl)cc1 (stereo not given) is ____.
## Result 599

## Task Fill blank: measured RP-LC retention time of the compound Cc1ccccc1S(=O)(=O)N1CCCC(CCC(=O)NCC2CCCCC2)C1 (stereo not given) is ____.
## Result 580

## Task Fill blank: measured RP-LC retention time of the compound COc1cc(CN(CC2CCCO2)C(=O)c2ccc(F)cc2)cc(OC)c1OC (stereo not given) is ____.
## Result 834

## Task Fill blank: measured RP-LC retention time of the compound CC(C)Cc1nc(-c2ccccc2)oc1CC(=O)Nc1ccc(F)cc1Cl is ____.
## Result 1180

## Task Fill blank: measured RP-LC retention time of the compound Cc1ccc(NC(=O)N2CCC3(CC2)NC(=O)c2ccccc2O3)cc1 is ____.
## Result 762

## Task Fill blank: measured RP-LC retention time of the compound Cc1cccc(-c2nc(N3CCCC3)ncc2C(=O)O)c1 is ____.
## Result 819

## Task Fill blank: measured RP-LC retention time of the compound O=C(NCc1ccncc1)C1CCCN(c2nnc3ccc(C(F)(F)F)cn23)C1 (stereo not given) is ____.
## Result 550

## Task Fill blank: measured RP-LC retention time of the compound CCn1ccc(C(=O)N2CCN(c3nnc4ccc(Cl)cn34)CC2)n1 is ____.
## Result 562

## Task Fill blank: measured RP-LC retention time of the compound CCCNc1cc(N2CCC(CCC(=O)NC3CCN(C(=O)OCC)CC3)CC2)ncn1 is ____.
## Result 627

## Task Fill blank: measured RP-LC retention time of the compound Cc1nc2cccnc2n1C1CCN(C(=O)Nc2ccc(F)cc2F)CC1 is ____.
## Result 619

## Task Fill blank: measured RP-LC retention time of the compound COCn1c(-c2ccc(OC)c(OC)c2)nc2ccccc21 is ____.
## Result 573

## Task Fill blank: measured RP-LC retention time of the compound COC(=O)c1ccccc1NC(=O)CSc1cc(N2CCN(c3ccccc3OC)CC2)ncn1 is ____.
## Result 905

## Task Fill blank: measured RP-LC retention time of the compound Cc1cnc(C2CN(Cc3ccccn3)C2)n1CC1CC1 is ____.
## Result 538

## Task Fill blank: measured RP-LC retention time of the compound O=C(Cn1c(=O)c2cc(-c3ccco3)nn2c2ncccc21)NCCc1ccccc1 is ____.
## Result 797

## Task Fill blank: measured RP-LC retention time of the compound COc1ccc(-c2nc(-c3ccc4nncn4c3)no2)c(OC)c1 is ____.
## Result 800

* * *

Assign RP-LC retention time to each entry below.
Assay: gradient 5% acetonitrile 3 min, to 50% in 2 min, to 85% in 15 min, held 3 min, 100 µL/min
Conditions: column: Zorbax Extend-C18 2.1 x 50 mm; eluents: water / acetonitrile, 0.1% formic acid
Answer in s, number only, no unit symbol.

## Task Fill blank: measured RP-LC retention time of the compound CCOc1ccc(CNC(=O)C2CCCN(C(=O)c3[nH]c(C)c(C(=O)OC(C)C)c3C)C2)cc1 (centres undefined) is ____.
## Result 877

## Task Fill blank: measured RP-LC retention time of the compound COc1cc(CN2CC(N(Cc3ccncc3)S(C)(=O)=O)C2)cc(OC)c1 is ____.
## Result 568

## Task Fill blank: measured RP-LC retention time of the compound O=C1CCCc2cc(S(=O)(=O)N3CCC(C(=O)NCCC4=CCCCC4)CC3)ccc2N1 is ____.
## Result 796

## Task Fill blank: measured RP-LC retention time of the compound CCC(Oc1ccc(=O)n(-c2ccc(F)cc2)n1)C(=O)Nc1ccc(C(C)=O)cc1 (centres undefined) is ____.
## Result 764

## Task Fill blank: measured RP-LC retention time of the compound Cn1c(=O)c(C(=O)NCc2ccccc2)nc2cccnc21 is ____.
## Result 735

## Task Fill blank: measured RP-LC retention time of the compound COc1ccc(Nc2c(-c3ccc(OC)cc3)nc3nc(C)cc(C)n23)cc1 is ____.
## Result 711

## Task Fill blank: measured RP-LC retention time of the compound COc1ccccc1N1CCN([C@H]2CS(=O)(=O)C[C@@H]2S(=O)(=O)c2ccc(F)c(C)c2)CC1 is ____.
## Result 864

## Task Fill blank: measured RP-LC retention time of the compound Cn1c(C(=O)N2CCN(c3ccccn3)CC2)cc2sccc21 is ____.
## Result 598

## Task Fill blank: measured RP-LC retention time of the compound COCc1nc(-c2ccc(OC3CCN(C(=O)C4(c5ccc(OC)cc5)CC4)C3)cc2)no1 (centres undefined) is ____.
## Result 896
